Tested on: UMC-11
protocol-summary: relative viability (nuclei count vs DMSO), 5 days (fraction); higher = more cells survive
condition-set: first compound 0.08 µM
quantity-kind: relative viability

[
  {
    "compound": "COc1nc(C)cnc1NS(=O)(=O)c1cccnc1-c1ccc(-c2nnco2)cc1 [Zibotentan] + CC(=O)Nc1cccc(-n2c(=O)n(C3CC3)c(=O)c3c(Nc4ccc(I)cc4F)n(C)c(=O)c(C)c32)c1 [Trametinib] (partner 0.02 µM)",
    "quantity-kind": "relative viability",
    "reported": 0.617
  },
  {
    "compound": "COc1nc(C)cnc1NS(=O)(=O)c1cccnc1-c1ccc(-c2nnco2)cc1 [Zibotentan] + Nc1nc2[nH]cc(CCc3ccc(C(=O)N[C@@H](CCC(=O)O)C(=O)O)cc3)c2c(=O)[nH]1 [Pemetrexed] (partner 0.2 µM)",
    "quantity-kind": "relative viability",
    "reported": 0.671
  },
  {
    "compound": "COc1nc(C)cnc1NS(=O)(=O)c1cccnc1-c1ccc(-c2nnco2)cc1 [Zibotentan] + COc1cccc2cc(-c3nc([C@H]4CC[C@H](C(=O)O)CC4)n4ncnc(N)c34)[nH]c12 [OSI-027] (partner 0.5 µM)",
    "quantity-kind": "relative viability",
    "reported": 0.562
  },
  {
    "compound": "COc1nc(C)cnc1NS(=O)(=O)c1cccnc1-c1ccc(-c2nnco2)cc1 [Zibotentan] + Cc1nc(NC(=O)N2CCC[C@H]2C(N)=O)sc1-c1ccnc(C(C)(C)C(F)(F)F)c1 [Alpelisib] (partner 2 µM)",
    "quantity-kind": "relative viability",
    "reported": 0.861
  },
  {
    "compound": "O=c1cc(-c2cccc3c2Sc2ccccc2S3)oc(N2CCOCC2)c1 + N=C(N)NC(=N)NCCc1ccccc1 [Phenformin] (partner 250 µM)",
    "quantity-kind": "relative viability",
    "reported": 0.322
  }
]
